# Test system: A204
# testProtocol: relative viability vs DMSO control (72 h) (fraction); higher = more viable cells
# conditionsUsed: 0.1235 µM
measuredAttribute: relative viability
When you answer, write just the number.

Past entries and their recorded results:
# smilesStr, relative viability
rows = [
    ("FC(F)(F)c1ccc(CNc2ccc(Cc3c[nH]c4ncc(Cl)cc34)cn2)cn1", 1.05),
    ("CCCCCCCCCCCCCCCCCCOP(=O)([O-])OC1CC[N+](C)(C)CC1", 1.08),
    ("C=CC(=O)Nc1cccc(Nc2nc(Nc3ccc(N4CCN(C(C)=O)CC4)cc3OC)ncc2C(F)(F)F)c1", 1.11),
]

Continue with the next compound.
Task: Form field: relative viability recorded for `Cc1cn(-c2cc(NC(=O)c3ccc(C)c(Nc4nccc(-c5cccnc5)n4)c3)cc(C(F)(F)F)c2)cn1` with A204 (enter value)
Result: 1.01
